test: Mouse pharmacokinetics testing; type: in vivo, CD1 female mice; conditions: mouse, in vivo, po, 10 mg/kg
Parameter: Cmax (ng/mL)
Unit ng/mL implied. Number only.

Notebook: CCN(C(=O)C(=O)Nc1cnc(N)c2c1cnn2C)[C@@H]1COc2cc(C(F)(F)F)ccc21 [Compound P19a] , Cmax read as 1100

---

For each record, write down the corresponding IC50.
Tested on: HCT116-MTAPdel
Assay: 2D antiproliferative assay (CTG cell viability), MTAP-deficient cells
Format: cell-based
Conditions: Homo sapiens, HCT-116; HCT116 MTAP-deficient cells, 7-10 days, CTG; read-out: HCT116-MTAPdel/IC50/nM
Protocol: HCT116 wild-type and MTAP-deficient cells were cultured in McCoy's 5A medium containing 10% FBS and 1% penicillin-streptomycin, and cultured in a 37°C, 5% CO2 constant temperature incubator. 40 µL of cell suspension was introduced into each well of a 384-well microplate. 40 nL of different concentrations of test compounds were added to each well using an Echo, before culturing in a 37°C, 5% CO2 constant temperature incubator for 7-10 days. […]
Write the value in nM as a bare number.

Consider `[2H]C([2H])([2H])N(C(=O)C(=O)Nc1cnc(N)c2c1cnn2C)[C@@H]1COCc2nc(C(F)(F)F)ccc21` . Its measured IC50 is 15

So for C[C@H]1CC[C@H](c2ccc3sc(C4CCOCC4)nc3c2)N(C(=O)C(=O)Nc2cnc(N)c3c2cnn3C)C1 (racemic) , the logged IC50 turned out to be 14

Field IC50 (entry `C[C@H](c1ncccn1)N(Cc1ccc(-c2cncc(Cl)c2)cn1)C(=O)C(=O)Nc1cnc(N)c2c1cnn2C` ) reads 4

Sample C[C@H]1CC[C@H](c2ccc3sc(CN(C)C)nc3c2)N(C(=O)C(=O)Nc2cnc(N)c3c2cnn3C)C1 (racemic) ; IC50 observed: 11

Short answer for C[C@H]1CC[C@H](c2ccc3sc(CCN(C)C)nc3c2)N(C(=O)C(=O)Nc2cnc(N)c3c2cnn3C)C1 (racemic) : IC50 was 6

Briefly, IC50 measured for CC(=O)N1CCC(Nc2cc(C(=O)NC[C@H](O)CN3CCc4ccccc4C3)ncn2)CC1 [GSK3326595, reference compound] : 17

// sample `[2H]C([2H])([2H])n1ncc2c(NC(=O)C(=O)N(C)[C@@H]3COCc4nc(C(F)(F)F)ccc43)cnc(N)c21` , its IC50 was 12

Measured IC50 of CN(C(=O)C(=O)Nc1cnc(N)c2c1cnn2C)C1COc2cc(C(F)(F)F)ccc21 (stereo not drawn) [Compound P2] : 32

For C[C@@H]1CC[C@@H](c2ccc3scnc3c2)N(C(=O)C(=O)Nc2cnc(N)c3c2cnn3C)C1 (racemic) the compound record lists IC50 as 13

Summary for this compound, `C[C@H](c1ncccn1)N(Cc1ccc(C(F)(F)F)cn1)C(=O)C(=O)Nc1cnc(N)c2cnn(C)c12` : IC50 is 813

Recorded result, C[C@H]1COC[C@@H](c2ccc(C(F)(F)F)cn2)N1C(=O)C(=O)Nc1cnc(N)c2c1cnn2C [Compound P11a] , IC50: 1910

Entry C[C@H](c1ncccn1)N(Cc1ccc(C(F)(F)F)cn1)C(=O)C(=O)Nc1cnc(N)c2c1cnn2C [Compound P1] ; IC50 = 9

---

assay: in vitro; conditions: human, microsomes
Parameter: CLint scaled at 1 h, 1 µM
Remember to put the unit after the number in your answer.

For reference, reported CLint scaled at 1 h, 1 µM for CN(C(=O)C(=O)Nc1cnc(N)c2c1cnn2C)C1COc2cc(SC(F)(F)F)ccc21 (racemic) [Compound P29] stands at 25.9 mL/min/kg
